List of mass density values.
Conditions: 303.15 K; 100 kPa; Liquid; Vibrating tube method
# number only, unit kg/m3 dropped from output

CC(=O)[O-].CCn1cc[n+](CCOC)c1 [1-ethyl-3-(2-methoxyethyl)imidazolium acetate] = 1189.07
CCn1cc[n+](CCOC)c1.O=S(=O)([O-])C(F)(F)F = 1351.61
CCn1cc[n+](CCOC)c1.N#C[N-]C#N [1-ethyl-3-(2-methoxyethyl)imidazolium dicyanamide] = 1110.21
CCn1cc[n+](CCOC)c1.O=S(=O)([N-]S(=O)(=O)C(F)(F)F)C(F)(F)F = 1458.11

query: Provide mass density value for the following molecule: CCn1cc[n+](CCOC)c1.N#C[S-] [1-ethyl-3-(2-methoxyethyl)imidazolium thiocyanate]
result: 1118.89

###

Conditions: 318.15 K; 100 kPa; Liquid; Vibrating tube method
quantity-name: mass density (kg/m3)
# number only, unit kg/m3 dropped from output

CCn1cc[n+](CCOC)c1.N#C[N-]C#N [1-ethyl-3-(2-methoxyethyl)imidazolium dicyanamide] = 1100.15

query: Provide mass density value for the following molecule: CCn1cc[n+](CCOC)c1.N#C[S-] [1-ethyl-3-(2-methoxyethyl)imidazolium thiocyanate]
result: 1109.37

query: Provide mass density value for the following molecule: CC(=O)[O-].CCn1cc[n+](CCOC)c1 [1-ethyl-3-(2-methoxyethyl)imidazolium acetate]
result: 1179.14

query: Provide mass density value for the following molecule: CCn1cc[n+](CCOC)c1.O=S(=O)([O-])C(F)(F)F
result: 1338.88

query: Provide mass density value for the following molecule: CCn1cc[n+](CCOC)c1.O=S(=O)([N-]S(=O)(=O)C(F)(F)F)C(F)(F)F
result: 1443.16

###

List of surface tension liquid-gas values.
Conditions: 303.15 K, Maximal bubble pressure
# number only, unit mN/m dropped from output

Reference set (4 entries):
CCn1cc[n+](CCOC)c1.O=S(=O)([O-])C(F)(F)F = 37.7
CCn1cc[n+](CCOC)c1.O=S(=O)([N-]S(=O)(=O)C(F)(F)F)C(F)(F)F = 35.8
CC(=O)[O-].CCn1cc[n+](CCOC)c1 [1-ethyl-3-(2-methoxyethyl)imidazolium acetate] = 45.7
CCn1cc[n+](CCOC)c1.N#C[N-]C#N [1-ethyl-3-(2-methoxyethyl)imidazolium dicyanamide] = 44.3

Moving on to the next compound.
query: Provide surface tension liquid-gas value for the following compound: CCn1cc[n+](CCOC)c1.N#C[S-] [1-ethyl-3-(2-methoxyethyl)imidazolium thiocyanate]
result: 48.7

###

Details: 328.15 K, Maximal bubble pressure
quantity-name: surface tension liquid-gas (mN/m)
# number only, unit mN/m dropped from output

Reference set (4 entries):
CC(=O)[O-].CCn1cc[n+](CCOC)c1 [1-ethyl-3-(2-methoxyethyl)imidazolium acetate] = 44.3
CCn1cc[n+](CCOC)c1.O=S(=O)([N-]S(=O)(=O)C(F)(F)F)C(F)(F)F = 34.4
CCn1cc[n+](CCOC)c1.N#C[N-]C#N [1-ethyl-3-(2-methoxyethyl)imidazolium dicyanamide] = 42.9
CCn1cc[n+](CCOC)c1.N#C[S-] [1-ethyl-3-(2-methoxyethyl)imidazolium thiocyanate] = 47.3

query: Provide surface tension liquid-gas value for the following compound: CCn1cc[n+](CCOC)c1.O=S(=O)([O-])C(F)(F)F
result: 36.3

Data origin, for the record: the NIST ThermoML archive (doi:10.1016/j.jct.2017.08.035)
